Source of measurements: PubChem BioAssay (NCI)

Each entry below lists one item and its recorded growth inhibition value.
method_summary: NCI Yeast Anticancer Drug Screen. Data for the cln2 rad14 strain (AID 165);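 also: 0% = growth equal to vehicle treated cultures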
assay_setup: S. cerevisiae cln2 rad14 strain, at 50.0 µM (retest, dose inferred, filed as 5.0), hits give high values
Compounds without any hit were thinned out: in the full panel of roughly 79,000, 15% have a hit.

{"molecule": "OCCc1cccc2ccc3ccccc3c12", "growth inhibition [%]": 59}
{"molecule": "CC1=CC(=O)CC(c2ccccc2)C1 (stereo not given)", "growth inhibition [%]": 97}
{"molecule": "CCC[CH2][Sn]([Cl])([CH2]CCC)[S]/C(C#N)=N/N=C/c1ccc(N(C)C)cc1", "growth inhibition [%]": 98}
{"molecule": "COC1CC2CCC(C)[C@](O)(O2)C(=O)C(=O)N2CCCCC2C(=O)OC(C(C)CC2CCC(O)C(OC)C2)CC(=O)C(C)C=C(C)C(OC(=O)CCCN2CCCC2)C(OC)C(=O)C(C)CC(C)/C=C/C=C/C=C\\1C (stereo not given in full)", "growth inhibition [%]": 96}
{"molecule": "O=S1(=O)C=C(c2ccccc2)S(=O)(=O)C=C1c1ccccc1", "growth inhibition [%]": 94}

###

method_summary: NCI Yeast Anticancer Drug Screen. Data for the bub3 strain (AID 167)
assay_setup: S. cerevisiae bub3 mutant strain, at 50.0 µM (retest, dose inferred, filed as 5.0)
About 79,000 compounds went through this panel and 15% of them were active in at least one assay; those are over-represented in the sample as a whole. Activity calls are given as the source filed them. No stated cut-off is given here; in the data, active means growth inhibition above about 70%; inactive means the rest.
Outcomes: active, inactive

{"compound": "O=C1OC(c2ccccc2)(c2ccc(-c3ccccc3O)cc2)c2ccccc21 (configuration not stated)", "label": "active"}
{"compound": "NC(=O)NC(=O)N/N=C/c1ccc([N+](=O)[O-])o1", "label": "inactive"}
{"compound": "Cc1cc(Cl)n2c(nc3ccccc32)c1C#N", "label": "active"}
{"compound": "O=c1[nH]c2c([N+](=O)[O-])cc(Cl)cc2nc1/C=C(\\O)c1ccc2ccccc2c1", "label": "active"}
{"compound": "c1ccc(-c2n[nH]c3c4ccccc4c4ccccc4c23)cc1", "label": "active"}
{"compound": "Cc1cccc(-c2nnc(-c3cccc(C)c3)o2)c1", "label": "inactive"}
{"compound": "CCN1/C(=C/C=C/C=C\\C=C\\c2sc3ccc4ccccc4c3[n+]2CC)Sc2ccc3ccccc3c21", "label": "inactive"}
{"compound": "O=C(O)C1(Cc2ccc3c(c2)CCC3)Cc2ccccc2C1=O (configuration not stated)", "label": "inactive"}
{"compound": "[N-]=[N+]=NC1=C(C(=O)c2ccccc2)C(=O)c2cccc3cccc1c23", "label": "inactive"}
{"compound": "O=C(O)c1cc(C(=O)O)c(C(=O)O)cc1C(=O)O.[NH-]C1CCCC1.[NH-]C1CCCC1.[NH-]C1CCCC1.[NH-]C1CCCC1.[Pt+2].[Pt+2]", "label": "active"}
{"compound": "N#C/C(=C\\C(Cl)=C/c1ccccc1)C(N)=S", "label": "active"}
{"compound": "ClC1(Cl)c2ccccc2-c2ccccc21", "label": "inactive"}

###

Each entry below lists one item and its recorded growth inhibition value.
method_summary: NCI Yeast Anticancer Drug Screen. Data for the bub3 strain (AID 167)
assay_setup: S. cerevisiae bub3 mutant strain, at 5.0 µM (retest, dose inferred, filed as 0.5), hits give high values
This is part of a sample that, as a whole, favours compounds with a hit. Of some 79,000 tested, about 15% had one in any assay.

{"compound": "O=c1ccnc(Nc2ccc[nH]c2=S)[nH]1", "unit_text": "%", "growth inhibition": 4}
{"compound": "CC(=O)C(C(=O)CCSCCO)C(SCCO)c1ccc(Cl)c(Cl)c1 (centres undefined)", "unit_text": "%", "growth inhibition": -6}
{"compound": "CCCCCOCC(=O)OC", "unit_text": "%", "growth inhibition": 0}
{"compound": "Cc1ccc(S(=O)(=O)Oc2c([N+](=O)[O-])cc(C)cc2[N+](=O)[O-])cc1", "unit_text": "%", "growth inhibition": 5}
